Each recorded value in this set is attributed to paper PMC9998502.

target: human mu receptor (Homo sapiens, UniProt P35372); construct: expressed in transfected cells; host or cells: CHO cells stably co-expressing Gαqi5; test: Calcium mobilization assay, CHO mu cells expressing Gαqi5; assay type: cell-based
Sequence (P35372 whole entry): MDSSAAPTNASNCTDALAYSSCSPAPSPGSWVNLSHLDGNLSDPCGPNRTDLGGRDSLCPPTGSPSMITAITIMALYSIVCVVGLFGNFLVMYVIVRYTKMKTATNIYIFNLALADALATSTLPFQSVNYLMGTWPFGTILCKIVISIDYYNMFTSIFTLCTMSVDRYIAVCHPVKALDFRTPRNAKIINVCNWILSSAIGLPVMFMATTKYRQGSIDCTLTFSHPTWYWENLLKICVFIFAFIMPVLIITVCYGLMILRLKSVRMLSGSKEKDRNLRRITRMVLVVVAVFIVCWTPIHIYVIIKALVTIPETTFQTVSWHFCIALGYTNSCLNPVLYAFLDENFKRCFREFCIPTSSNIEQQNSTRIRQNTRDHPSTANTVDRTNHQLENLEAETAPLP
Non-standard residues stand in square brackets, D forms with d. Residues, ends and D or L forms follow the SMILES beside them. Dmt = Cc1cc(O)cc(C)c1C[C@H](N)C(=O)O; d(β3hA) = C[C@@H](N)CC(=O)O
endpoint name: EC50 (nM)

1. Cc1cc(O)cc(C)c1C[C@H](N)C(=O)NC[C@@H](C)C(=O)N[C@@H](Cc1ccccc1)C(=O)N[C@@H](Cc1ccccc1)C(N)=O [analog 7, Dmt-(R)-β ^ 2 -Ala-Phe-Phe-NH2]: 0.692
2. Cc1cc(O)cc(C)c1C[C@H](N)C(=O)N1CCCC[C@@H]1C(=O)N[C@@H](Cc1ccccc1)C(=O)N[C@@H](Cc1ccccc1)C(N)=O [analog 3, Dmt-(R)-Pip-Phe-Phe-NH2]: 1.51
3. Cc1cc(O)cc(C)c1C[C@H](N)C(=O)N1CCC[C@H]1C(=O)NC[C@@H](Cc1cccc2ccccc12)C(=O)N[C@@H](Cc1ccccc1)C(N)=O [analog 11, Dmt-Pro-(R)-β ^ 2 -1-Nal-Phe-NH2]: 9.77
4. Cc1cc(O)cc(C)c1C[C@H](N)C(=O)N[C@H](C)CC(=O)N[C@@H](Cc1ccccc1)C(=O)N[C@@H](Cc1ccccc1)C(N)=O [analog 9, Dmt-(R)-β ^ 3 -Ala-Phe-Phe-NH2] (H-[Dmt][d(β3hA)]FF-NH2; N-terminus assumed): 0.457
5. C[C@H](CC(=O)N[C@@H](Cc1ccccc1)C(=O)N[C@@H](Cc1ccccc1)C(N)=O)NC(=O)[C@@H](N)Cc1ccc(O)cc1 [analog 8, Tyr-(R)-β ^ 3 -Ala-Phe-Phe-NH2] (H-Y[d(β3hA)]FF-NH2; N-terminus assumed): 1
6. NC(=O)[C@H](Cc1ccccc1)NC(=O)C[C@@H](Cc1cccc2ccccc12)NC(=O)[C@@H]1CCCN1C(=O)[C@@H](N)Cc1ccc(O)cc1 [analog 12, Tyr-Pro-(R)-β ^ 3 -1-Nal-Phe-NH2]: 47.9
7. Cc1cc(O)cc(C)c1C[C@H](N)C(=O)N1CCC[C@H]1C(=O)N[C@@H](CC(=O)N[C@@H](Cc1ccccc1)C(N)=O)Cc1cccc2ccccc12 [analog 13, Dmt-Pro-(R)-β ^ 3 -1-Nal-Phe-NH2]: 3.8
8. Cc1cc(O)cc(C)c1C[C@H](N)C(=O)N1CCC[C@H]1C(=O)N[C@@H](Cc1ccccc1)C(=O)N[C@@H](Cc1ccccc1)C(N)=O: 2.51
9. NC(=O)[C@H](Cc1ccccc1)NC(=O)[C@H](Cc1ccccc1)NC(=O)[C@H]1CCCCN1C(=O)[C@@H](N)Cc1ccc(O)cc1 [analog 2, Tyr-(R)-Pip-Phe-Phe-NH2]: 58.9
10. Cc1cc(O)cc(C)c1C[C@H](N)C(=O)N1CCC[C@@H](C(=O)N[C@@H](Cc2ccccc2)C(=O)N[C@@H](Cc2ccccc2)C(N)=O)C1 [analog 5, Dmt-(R)-Nip-Phe-Phe-NH2]: 0.316

###

experiment: Enzymatic degradation in rat brain homogenate; format: in vitro ADME; details: 37°C, up to 60 min
Note to self: values exactly at 1 per min are 1. So 100 x k, rate constant of degradation at or above 1 per min is 1, below is 0.

1) Cc1cc(O)cc(C)c1C[C@H](N)C(=O)NC[C@@H](C)C(=O)N[C@@H](Cc1ccccc1)C(=O)N[C@@H](Cc1ccccc1)C(N)=O [analog 7, Dmt-(R)-β ^ 2 -Ala-Phe-Phe-NH2]: 0
2) C[C@H](CNC(=O)[C@@H](N)Cc1ccc(O)cc1)C(=O)N[C@@H](Cc1ccccc1)C(=O)N[C@@H](Cc1ccccc1)C(N)=O [analog 6, Tyr-(R)-β ^ 2 -Ala-Phe-Phe-NH2]: 1
3) Cc1cc(O)cc(C)c1C[C@H](N)C(=O)N1CCCC[C@@H]1C(=O)N[C@@H](Cc1ccccc1)C(=O)N[C@@H](Cc1ccccc1)C(N)=O [analog 3, Dmt-(R)-Pip-Phe-Phe-NH2]: 0
4) NC(=O)[C@H](Cc1ccccc1)NC(=O)C[C@@H](Cc1cccc2ccccc12)NC(=O)[C@@H]1CCCN1C(=O)[C@@H](N)Cc1ccc(O)cc1 [analog 12, Tyr-Pro-(R)-β ^ 3 -1-Nal-Phe-NH2]: 1
5) NC(=O)[C@H](Cc1ccccc1)NC(=O)[C@H](Cc1ccccc1)NC(=O)[C@@H]1CCCN(C(=O)[C@@H](N)Cc2ccc(O)cc2)C1 [analog 4, Tyr-(R)-Nip-Phe-Phe-NH2]: 1

###

target: human kappa receptor (Homo sapiens); construct: expressed in transfected cells; host or cells: CHO cells stably co-expressing Gαqi5; assay: Calcium mobilization assay, CHO kappa cells expressing Gαqi5; format: cell-based; settings: intrinsic activity, Emax ratio to standard agonist dynorphin A; inactive = inactive up to 10 µM
Sequence (P41145 whole entry): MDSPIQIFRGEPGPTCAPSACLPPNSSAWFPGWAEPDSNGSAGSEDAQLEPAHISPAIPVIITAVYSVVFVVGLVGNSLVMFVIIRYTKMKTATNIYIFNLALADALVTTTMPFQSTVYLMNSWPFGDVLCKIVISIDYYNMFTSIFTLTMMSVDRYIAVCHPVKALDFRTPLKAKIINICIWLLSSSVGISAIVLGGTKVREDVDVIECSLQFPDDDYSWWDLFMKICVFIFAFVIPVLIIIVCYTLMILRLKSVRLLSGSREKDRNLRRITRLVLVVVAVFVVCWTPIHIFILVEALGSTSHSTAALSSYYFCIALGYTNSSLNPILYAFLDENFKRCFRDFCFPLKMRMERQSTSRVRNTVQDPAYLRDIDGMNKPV
endpoint name: Kappa α± SEM

1. Cc1cc(O)cc(C)c1C[C@H](N)C(=O)N1CCC[C@@H](C(=O)N[C@@H](Cc2ccccc2)C(=O)N[C@@H](Cc2ccccc2)C(N)=O)C1 [analog 5, Dmt-(R)-Nip-Phe-Phe-NH2]: inactive
2. NC(=O)[C@H](Cc1ccccc1)NC(=O)C[C@@H](Cc1cccc2ccccc12)NC(=O)[C@@H]1CCCN1C(=O)[C@@H](N)Cc1ccc(O)cc1 [analog 12, Tyr-Pro-(R)-β ^ 3 -1-Nal-Phe-NH2]: inactive
3. Cc1cc(O)cc(C)c1C[C@H](N)C(=O)N1CCCC[C@@H]1C(=O)N[C@@H](Cc1ccccc1)C(=O)N[C@@H](Cc1ccccc1)C(N)=O [analog 3, Dmt-(R)-Pip-Phe-Phe-NH2]: inactive
4. Cc1cc(O)cc(C)c1C[C@H](N)C(=O)N1CCC[C@H]1C(=O)N[C@@H](CC(=O)N[C@@H](Cc1ccccc1)C(N)=O)Cc1cccc2ccccc12 [analog 13, Dmt-Pro-(R)-β ^ 3 -1-Nal-Phe-NH2]: inactive
5. C[C@H](CNC(=O)[C@@H](N)Cc1ccc(O)cc1)C(=O)N[C@@H](Cc1ccccc1)C(=O)N[C@@H](Cc1ccccc1)C(N)=O [analog 6, Tyr-(R)-β ^ 2 -Ala-Phe-Phe-NH2]: inactive
